# pEC50 per entry
# tested.on: human mGlu2 receptor (Homo sapiens, UniProt Q14416)
# Sequence (Q14416 19-872): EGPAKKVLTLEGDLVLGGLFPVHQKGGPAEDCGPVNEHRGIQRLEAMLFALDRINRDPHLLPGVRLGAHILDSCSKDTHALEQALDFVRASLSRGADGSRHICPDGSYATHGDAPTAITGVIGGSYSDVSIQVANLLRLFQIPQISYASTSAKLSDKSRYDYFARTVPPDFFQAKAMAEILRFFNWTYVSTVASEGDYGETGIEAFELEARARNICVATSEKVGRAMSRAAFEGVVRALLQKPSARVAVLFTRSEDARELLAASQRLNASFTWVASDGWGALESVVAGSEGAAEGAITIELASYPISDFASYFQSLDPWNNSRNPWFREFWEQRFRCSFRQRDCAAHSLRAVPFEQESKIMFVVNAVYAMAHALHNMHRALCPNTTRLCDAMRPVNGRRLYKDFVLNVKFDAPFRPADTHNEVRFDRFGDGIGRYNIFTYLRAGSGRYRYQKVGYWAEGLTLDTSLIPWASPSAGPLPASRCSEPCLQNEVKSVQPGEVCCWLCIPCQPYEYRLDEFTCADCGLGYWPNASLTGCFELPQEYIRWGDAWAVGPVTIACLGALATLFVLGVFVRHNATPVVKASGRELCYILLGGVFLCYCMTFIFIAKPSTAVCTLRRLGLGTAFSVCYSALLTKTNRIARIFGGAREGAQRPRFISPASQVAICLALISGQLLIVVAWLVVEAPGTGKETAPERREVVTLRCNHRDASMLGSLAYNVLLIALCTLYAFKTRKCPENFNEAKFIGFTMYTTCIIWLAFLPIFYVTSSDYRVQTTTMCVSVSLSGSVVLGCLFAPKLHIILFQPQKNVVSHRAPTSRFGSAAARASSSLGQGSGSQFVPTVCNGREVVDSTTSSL
# assay.notes: FLIPR intracellular Ca2+ assay, potentiation of glutamate response in HEK293 clone expressing mGlu2 receptor, rGLAST and Galpha16
# condition.details: 1 μM glutamate added ten minutes after test compound, HEK293 cells with human mGlu2, rGLAST, Galpha16, read-out: EC50 values of potentiation effect to glutamate
pEC50: −log10 of the molar value.

# compound, recorded.result
records = [
    ("CCCC(=O)c1cccc(N(C)Cc2c[nH]nc2-c2ccc(C(F)(F)F)cc2)c1 [Example 392]", "5.00 to 6.00"),
]

Prompt line: Fill in reported pEC50 for this entry: CCCC(=O)c1ccc(NCc2cccnc2OC(C)C)cc1 [Example 310]
Response line: 5.00 to 6.00

Prompt line: Identify measured pEC50 associated with CCCC(=O)c1ccc(NCc2cc(-c3ccccc3F)no2)cc1 [Example 255]
Response line: 5.00 to 6.00

Prompt line: Return reported pEC50. Input compound: CCCC(=O)c1ccc(NCc2c[nH]nc2-c2ccc(Cl)cc2)cc1 [Example 217]
Response line: > 6.00

Prompt line: Answer with the recorded pEC50 of CCCCN1Cc2cc(OCc3c[nH]nc3-c3cccc(Cl)c3)ccc2C1=O [Example 549] only.
Response line: > 6.00

----------
Reported values of pEC50 for individual entries
# tested.on: human mGlu2 receptor (Homo sapiens, UniProt Q14416)
# assay.notes: FLIPR intracellular Ca2+ assay, potentiation of glutamate response in HEK293 clone expressing mGlu2 receptor, rGLAST and Galpha16
# condition.details: 1 μM glutamate added ten minutes after test compound, HEK293 cells with human mGlu2, rGLAST, Galpha16, read-out: EC50 values of potentiation effect to glutamate
pEC50: −log10 of the molar value.

# compound, tested.on, pEC50
rows = [
    ("CCC(C)Oc1cccc(NCc2c[nH]nc2-c2ccc(C(F)(F)F)cc2)c1 (stereo not drawn)", "human mGlu2 receptor (Homo sapiens, UniProt Q14416)", "5.00 to 6.00"),
    ("CCCC(=O)c1ccc(OCc2c[nH]nc2-c2ccc(Cl)cc2)cc1", "human mGlu2 receptor (Homo sapiens, UniProt Q14416)", "> 6.00"),
    ("CCCC(=O)c1ccc(NCc2n[nH]cc2-c2ccc(C(F)(F)F)cc2)cc1", "human mGlu2 receptor (Homo sapiens, UniProt Q14416)", "> 6.00"),
    ("CCN1Cc2cc(OCc3c[nH]nc3-c3ccc(F)cc3)ccc2C1=O", "human mGlu2 receptor (Homo sapiens, UniProt Q14416)", "> 6.00"),
    ("CCCN1Cc2cc(NCc3c(C)noc3-c3ccccc3)ccc2C1=O", "human mGlu2 receptor (Homo sapiens, UniProt Q14416)", "> 6.00"),
]

Prompt line: Write down the reported pEC50 (system: human mGlu2 receptor (Homo sapiens, UniProt Q14416)) of CCCN1Cc2cc(OCc3c[nH]nc3-c3cccc(Cl)c3)ccc2C1=O
Response line: > 6.00

Prompt line: Write down measured pEC50 (human mGlu2 receptor (Homo sapiens, UniProt Q14416)) for this compound. CCCC(=O)c1ccc(NCc2cnn(C)c2-c2ccc(C(F)(F)F)cc2)cc1
Response line: > 6.00

Prompt line: State pEC50 on human mGlu2 receptor (Homo sapiens, UniProt Q14416). Entry: CC(=O)c1ccc(OCc2c[nH]nc2-c2ccc(C(F)(F)F)cc2)cc1C
Response line: 5.00 to 6.00

Prompt line: Check human mGlu2 receptor (Homo sapiens, UniProt Q14416) data and give pEC50 for CCCC(=O)c1ccc(NCc2sc(Cl)nc2Cl)cc1 .
Response line: 5.00 to 6.00
